Measurement Target: Solute carrier organic anion transporter family member 1A2 (OATP1A2) (Homo sapiens, UniProt P46721)
Sequence (P46721 whole entry): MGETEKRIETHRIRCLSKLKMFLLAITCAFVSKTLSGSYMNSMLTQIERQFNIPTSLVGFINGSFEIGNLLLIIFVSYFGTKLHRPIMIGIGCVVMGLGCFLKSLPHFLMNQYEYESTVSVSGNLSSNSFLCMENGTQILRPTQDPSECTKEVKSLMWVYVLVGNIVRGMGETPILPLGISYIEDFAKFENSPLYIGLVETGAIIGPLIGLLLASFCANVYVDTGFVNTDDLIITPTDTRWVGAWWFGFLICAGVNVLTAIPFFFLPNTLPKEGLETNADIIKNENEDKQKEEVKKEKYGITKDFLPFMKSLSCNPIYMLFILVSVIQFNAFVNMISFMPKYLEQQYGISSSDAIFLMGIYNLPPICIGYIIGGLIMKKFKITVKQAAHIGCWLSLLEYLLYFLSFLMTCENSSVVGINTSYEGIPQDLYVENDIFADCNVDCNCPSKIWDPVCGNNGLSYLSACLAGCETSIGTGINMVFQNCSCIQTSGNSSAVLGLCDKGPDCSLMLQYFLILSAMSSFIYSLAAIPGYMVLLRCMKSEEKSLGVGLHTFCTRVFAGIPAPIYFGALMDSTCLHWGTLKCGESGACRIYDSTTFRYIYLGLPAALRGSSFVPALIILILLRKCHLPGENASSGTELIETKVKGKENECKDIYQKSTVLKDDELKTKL
Experimental Details: TP_TRANSPORTER: inhibition of Taurocholate uptake (Taurochorate: 10 uM, GC: 200 uM) in Xenopus laevis oocytes
Type: functional, cell-based, Oocyte
Design: scale not given: the % may be the effect or the level left
Cond: Xenopus laevis oocytes expressing OATP1A2 (SLCO1A2), probe taurocholate, read-out: Activity
Measurement Type: activity at 200 µM (%)
Answers are plain numbers, in %.

Exercise: Which activity at 200 µM is listed for C[C@H](CCC(=O)NCC(=O)O)[C@H]1CC[C@H]2[C@@H]3[C@H](O)C[C@@H]4C[C@H](O)CC[C@]4(C)[C@H]3C[C@H](O)[C@]12C [GLYCOCHOLIC ACID] ?
Key: 24

----------
Measurement Target: UniProt:P46721
Experimental Details: TP_TRANSPORTER: inhibition of Taurocholate uptake (Taurochorate: 10 uM, ICG: 100 uM) in Xenopus laevis oocytes
Assay type: functional, cell-based, Oocyte
Set-up: scale not given: the % may be the effect or the level left
Cond: Xenopus laevis oocytes expressing OATP1A2 (SLCO1A2), probe taurocholate, read-out: Activity
Measurement Type: activity at 100 µM (%)
One number for each entry, in %.

Exercise: Which activity at 100 µM is listed for CC1(C)C(/C=C/C=C/C=C/C=C2\N(CCCCS(=O)(=O)O)c3ccc4ccccc4c3C2(C)C)=[N+](CCCCS(=O)(=O)[O-])c2ccc3ccccc3c21 ?
Key: 28

----------
Measurement Target: Solute carrier organic anion transporter family member 1A2 (OATP1A2) (Homo sapiens, UniProt P46721)
Sequence (P46721 whole entry): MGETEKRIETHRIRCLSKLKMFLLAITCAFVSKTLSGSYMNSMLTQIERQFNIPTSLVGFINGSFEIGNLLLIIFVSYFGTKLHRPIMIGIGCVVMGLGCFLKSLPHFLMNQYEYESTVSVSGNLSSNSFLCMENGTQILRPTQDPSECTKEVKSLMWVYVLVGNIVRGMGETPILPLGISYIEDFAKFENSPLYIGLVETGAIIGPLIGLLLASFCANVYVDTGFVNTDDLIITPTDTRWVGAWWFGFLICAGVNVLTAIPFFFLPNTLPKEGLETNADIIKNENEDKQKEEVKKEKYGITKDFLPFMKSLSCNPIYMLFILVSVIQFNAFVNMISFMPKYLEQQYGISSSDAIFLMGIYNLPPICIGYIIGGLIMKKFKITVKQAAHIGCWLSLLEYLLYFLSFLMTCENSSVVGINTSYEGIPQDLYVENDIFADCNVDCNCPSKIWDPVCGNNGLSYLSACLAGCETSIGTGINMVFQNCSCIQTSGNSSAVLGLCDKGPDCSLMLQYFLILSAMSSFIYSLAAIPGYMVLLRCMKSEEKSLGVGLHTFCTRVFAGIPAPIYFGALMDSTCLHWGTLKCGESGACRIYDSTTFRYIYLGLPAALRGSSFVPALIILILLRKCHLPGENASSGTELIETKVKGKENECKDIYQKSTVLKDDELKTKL
Experimental Details: TP_TRANSPORTER: inhibition of BSP uptake (BSP: 10 uM, TUDC: 100 uM) in Xenopus laevis oocytes
Assay type: functional, cell-based, Oocyte
Design: scale not given: the % may be the effect or the level left
Cond: Xenopus laevis oocytes expressing OATP1A2 (SLCO1A2), probe BSP (sulfobromophthalein), read-out: Activity
Measurement Type: activity at 100 µM (%)
Give bare numbers, in %.

Exercise: Which activity at 100 µM is listed for C[C@H](CCC(=O)NCCS(=O)(=O)O)[C@H]1CC[C@H]2[C@@H]3[C@@H](O)C[C@@H]4C[C@H](O)CC[C@]4(C)[C@H]3CC[C@]12C ?
Key: 9
